Recorded values, source ChEMBL document CHEMBL2331539.

For each of the molecules below, state its metabolised at 6 h.
# ASSAY OVERVIEW: Stability of the compound in presence of alpha-chymotrypsin (unknown origin) assessed as degradation measured after 360 mins by HPLC analysis
# Assay type: ADME, Homo sapiens
# CONDITION SUMMARY: read-out: Drug degradation
Square brackets hold non-standard residues; d marks the D form. Peptide text beside a SMILES is read from it. Dap = NC[C@H](N)C(=O)O
Give bare numbers, in %.

{"MOLECULE": "CC[C@H](C)[C@@H]1NC(=O)[C@H](Cc2ccc(O)cc2)NC(=O)[C@H](CN)NC(=O)CNC(=O)[C@H](CC(N)=O)NC(=O)[C@H](CCC(N)=O)NC1=O (cyclo([Dap]YIQNG))", "metabolised at 6 h, %": 0.0955}

Next molecule, please.
# metabolised at 6 h of NC(=O)CC[C@@H]1NC(=O)[C@H](Cc2ccccc2)NC(=O)[C@H](Cc2ccc(O)cc2)NC(=O)[C@@H](N)CSSC[C@@H](C(=O)N2CCC[C@H]2C(=O)N[C@@H](CCCN=C(N)N)C(=O)NCC(N)=O)NC(=O)[C@H](CC(N)=O)NC1=O [VASOPRESSIN] = 46.1

====

# ASSAY OVERVIEW: Stability of the compound in presence of pronase (unknown origin) assessed as degradation measured after 60 mins by HPLC analysis
# Type: ADME
# CONDITION SUMMARY: read-out: Drug degradation
Square brackets hold non-standard residues; d marks the D form. Peptide text beside a SMILES is read from it. Dap = NC[C@H](N)C(=O)O
ASSAY READOUT: metabolised at 1 h (%)
Numbers only, in %.

Would you please look over these solved cases?
{"MOLECULE": "CC[C@H](C)[C@@H]1NC(=O)[C@H](Cc2ccc(O)cc2)NC(=O)[C@H](CN)NC(=O)CNC(=O)[C@H](CC(N)=O)NC(=O)[C@H](CCC(N)=O)NC1=O (cyclo([Dap]YIQNG))", "ASSAY READOUT": "metabolised at 1 h", "UNIT SYMBOL": "%", "EXPERIMENTAL VALUE": 11.5}
{"MOLECULE": "NC(=O)CC[C@@H]1NC(=O)[C@H](Cc2ccccc2)NC(=O)[C@H](Cc2ccc(O)cc2)NC(=O)[C@H](Cc2ccc(O)cc2)NC(=O)CNC(=O)[C@H](CC(N)=O)NC1=O (cyclo(FQNGYY))", "ASSAY READOUT": "metabolised at 1 h", "UNIT SYMBOL": "%", "EXPERIMENTAL VALUE": 27.9}
{"MOLECULE": "CC[C@H](C)[C@@H]1NC(=O)[C@H](Cc2ccc(O)cc2)NC(=O)[C@@H](N)CSSC[C@@H](C(=O)N2CCC[C@H]2C(=O)N[C@@H](CC(C)C)C(=O)NCC(N)=O)NC(=O)[C@H](CC(N)=O)NC(=O)[C@H](CCC(N)=O)NC1=O", "ASSAY READOUT": "metabolised at 1 h", "UNIT SYMBOL": "%", "EXPERIMENTAL VALUE": 69.6}
{"MOLECULE": "NC[C@@H]1NC(=O)CNC(=O)[C@H](CC(N)=O)NC(=O)[C@H](CCC(N)=O)NC(=O)[C@H](Cc2ccccc2)NC(=O)[C@H](Cc2ccc(O)cc2)NC1=O (cyclo([Dap]YFQNG))", "ASSAY READOUT": "metabolised at 1 h", "UNIT SYMBOL": "%", "EXPERIMENTAL VALUE": -2.07}

Next molecule, please.
# metabolised at 1 h of NC(=O)CC[C@@H]1NC(=O)[C@H](Cc2ccccc2)NC(=O)[C@H](Cc2ccc(O)cc2)NC(=O)[C@@H](N)CSSC[C@@H](C(=O)N2CCC[C@H]2C(=O)N[C@@H](CCCN=C(N)N)C(=O)NCC(N)=O)NC(=O)[C@H](CC(N)=O)NC1=O = 4.4

====

# ASSAY OVERVIEW: Stability of the compound in presence of alpha-chymotrypsin (unknown origin) assessed as degradation measured after 60 mins by HPLC analysis
# Type: ADME, Homo sapiens
# CONDITION SUMMARY: read-out: Drug degradation
Square brackets hold non-standard residues; d marks the D form. Peptide text beside a SMILES is read from it. Dap = NC[C@H](N)C(=O)O
For each of the compounds below, state its metabolised at 1 h.
Answers are plain numbers, in %.

{"COMPOUND": "CC[C@H](C)[C@@H]1NC(=O)[C@H](Cc2ccc(O)cc2)NC(=O)[C@H](CN)NC(=O)CNC(=O)[C@H](CC(N)=O)NC(=O)[C@H](CCC(N)=O)NC1=O (cyclo([Dap]YIQNG))", "metabolised at 1 h (%)": 0.136}

# return metabolised at 1 h for each item in the list
1. NC(=O)CC[C@@H]1NC(=O)[C@H](Cc2ccccc2)NC(=O)[C@H](Cc2ccc(O)cc2)NC(=O)[C@@H](N)CSSC[C@@H](C(=O)N2CCC[C@H]2C(=O)N[C@@H](CCCN=C(N)N)C(=O)NCC(N)=O)NC(=O)[C@H](CC(N)=O)NC1=O [VASOPRESSIN]
2. CC[C@H](C)[C@@H]1NC(=O)[C@H](Cc2ccc(O)cc2)NC(=O)[C@@H](N)CSSC[C@@H](C(=O)N2CCC[C@H]2C(=O)N[C@@H](CC(C)C)C(=O)NCC(N)=O)NC(=O)[C@H](CC(N)=O)NC(=O)[C@H](CCC(N)=O)NC1=O [OXYTOCIN]
3. NC(=O)CC[C@@H]1NC(=O)[C@H](Cc2ccccc2)NC(=O)[C@H](Cc2ccc(O)cc2)NC(=O)[C@H](Cc2ccc(O)cc2)NC(=O)CNC(=O)[C@H](CC(N)=O)NC1=O (cyclo(FQNGYY))

[18.7, 25.1, -0.98]

# metabolised at 1 h of NC[C@@H]1NC(=O)CNC(=O)[C@H](CC(N)=O)NC(=O)[C@H](CCC(N)=O)NC(=O)[C@H](Cc2ccccc2)NC(=O)[C@H](Cc2ccc(O)cc2)NC1=O (cyclo([Dap]YFQNG)) = 6.62

====

For each of the compounds below, state its metabolised at 2 h.
# ASSAY OVERVIEW: Stability of the compound in presence of alpha-chymotrypsin (unknown origin) assessed as degradation measured after 120 mins by HPLC analysis
# Format: ADME, Homo sapiens
# CONDITION SUMMARY: read-out: Drug degradation
Square brackets hold non-standard residues; d marks the D form. Peptide text beside a SMILES is read from it. Dap = NC[C@H](N)C(=O)O
Numbers only, in %.

{"COMPOUND": "NC(=O)CC[C@@H]1NC(=O)[C@H](Cc2ccccc2)NC(=O)[C@H](Cc2ccc(O)cc2)NC(=O)[C@H](Cc2ccc(O)cc2)NC(=O)CNC(=O)[C@H](CC(N)=O)NC1=O (cyclo(FQNGYY))", "ASSAY READOUT": "metabolised at 2 h", "EXPERIMENTAL VALUE": 1.49}
{"COMPOUND": "CC[C@H](C)[C@@H]1NC(=O)[C@H](Cc2ccc(O)cc2)NC(=O)[C@@H](N)CSSC[C@@H](C(=O)N2CCC[C@H]2C(=O)N[C@@H](CC(C)C)C(=O)NCC(N)=O)NC(=O)[C@H](CC(N)=O)NC(=O)[C@H](CCC(N)=O)NC1=O", "ASSAY READOUT": "metabolised at 2 h", "EXPERIMENTAL VALUE": 43.2}
{"COMPOUND": "NC[C@@H]1NC(=O)CNC(=O)[C@H](CC(N)=O)NC(=O)[C@H](CCC(N)=O)NC(=O)[C@H](Cc2ccccc2)NC(=O)[C@H](Cc2ccc(O)cc2)NC1=O (cyclo([Dap]YFQNG))", "ASSAY READOUT": "metabolised at 2 h", "EXPERIMENTAL VALUE": 7.08}
{"COMPOUND": "NC(=O)CC[C@@H]1NC(=O)[C@H](Cc2ccccc2)NC(=O)[C@H](Cc2ccc(O)cc2)NC(=O)[C@@H](N)CSSC[C@@H](C(=O)N2CCC[C@H]2C(=O)N[C@@H](CCCN=C(N)N)C(=O)NCC(N)=O)NC(=O)[C@H](CC(N)=O)NC1=O", "ASSAY READOUT": "metabolised at 2 h", "EXPERIMENTAL VALUE": 32.1}

Next compound, please.
# metabolised at 2 h of CC[C@H](C)[C@@H]1NC(=O)[C@H](Cc2ccc(O)cc2)NC(=O)[C@H](CN)NC(=O)CNC(=O)[C@H](CC(N)=O)NC(=O)[C@H](CCC(N)=O)NC1=O (cyclo([Dap]YIQNG)) = 0
